Just for reference, ChEMBL document CHEMBL5058577 is where these values come from.

Tested on: HEK-293T
Assay: Multiplex assay against HEK293T
Assay type: toxicity, cell-based
Conditions: human, 48 h, 1 µM, compound concentration 1 uM, replicate 1
Quick list: Population Mitotic Cells (%) per entry.
Give the value in % but do not write % after it.

CSc1ccccc1N1CCN(CCCCCC(=O)NC2CCCc3ccccc32)CC1.Cl (stereo not drawn)
67
COc1cc(C(=O)N(CCCc2ccccc2)Cc2ccc(CC(=O)O)cc2)cc(OC)c1C
69
CN1CCN2c3ncccc3Cc3ccccc3C2C1 (stereo not drawn) [MIRTAZAPINE]
76
C[C@H]1[C@H]2CC[C@H]3[C@@H]4CC=C5C[C@@H](N(C)C)CC[C@]5(C)[C@H]4CC[C@]23CN1C [CONESSINE]
69
Cl.Clc1ccc2nsnc2c1NC1=NCCN1 [TIZANIDINE HYDROCHLORIDE]
82
Cc1nc2ccc(Oc3ccc(F)cc3)cc2c(=O)n1C[C@H]1CCCN(C(C)C)C1.Cl
72

Query: Find the recorded Population Mitotic Cells (%) belonging to CC[C@H]1OC(=O)[C@H](C)[C@@H](O[C@H]2C[C@@](C)(OC)[C@@H](O)[C@H](C)O2)[C@H](C)[C@@H](O[C@@H]2O[C@H](C)C[C@H](N(C)C)[C@H]2O)[C@@]2(C)CC(C)=C(O2)[C@H](C)[C@@H](O)[C@]1(C)O and report it.
Reply: 69

Query: Looking for the measured Population Mitotic Cells (%) of CCCn1c(=O)c2[nH]c(C3CCCC3)nc2n(CCC)c1=O , can you help?
Reply: 66

Query: What does the record list as Population Mitotic Cells (%) for Cc1ccccc1C(=O)Nc1ccc(C(=O)N2CCCC(N(C)C)c3ccccc32)cc1.Cl (stereo not drawn) ?
Reply: 86

Query: If you can, please state the reported Population Mitotic Cells (%) value of CCOc1c2c(c(OCC)c3ncccc13)CN(c1ccc(CS(=O)(=O)NC(=O)Cc3ccccc3OC)cc1C)C2=O .
Reply: 70

Query: Param item = CC(=O)NCCc1c(Cc2ccccc2)[nH]c2ccccc12 [LUZINDOLE] ; retrieve measured Population Mitotic Cells (%).
Reply: 75
